Experiment: Drug metabolism in mouse liver microsomes assessed as UGT mediated compound […] by measuring parent compound remaining at 5 uM after 60 mins in presence of UDPGA by UPLC/MS/ESI analysis
Assay type: ADME
Settings: 1 h
VALUE_TYPE: Stability (%)

Take a look at these entries with their results.
INSERT INTO measurements (compound, endpoint_unit, reported_value) VALUES
  ('Nc1nc(Nc2ccc(F)cc2)nc(Oc2ccc(F)cc2)n1', '%', 101),
  ('Cc1cc(C)c(Oc2nc(N)nc(Nc3ccc(F)cc3)n2)c(C)c1', '%', 112),
  ('Cc1ccc(Oc2nc(N)nc(Nc3ccc(F)cc3)n2)c(Cl)c1', '%', 113);

a. Cc1ccc(Oc2nc(N)nc(Nc3ccc(F)cc3)n2)cc1
b. O=C(O)Cc1ccccc1Nc1c(Cl)cccc1Cl [DICLOFENAC]
Data request: Which is greater in Stability, the first item a or the second item b ? # respond with the chosen item's label
Data returned: a
(a: 110%, b: 30%)

* * *

System: Trypanosoma brucei brucei
Assay: Antitrypanosomal activity against suramin-sensitive Trypanosoma brucei brucei Squib 427 after 72 hrs by resazurin dye-based fluorimetric analysis
Assay type: functional, organism-based
Conditions: Squib 427, 72 h
pIC50: −log10 of the molar value.
VALUE_TYPE: pIC50

Take a look at these entries with their results.
INSERT INTO assay_data (smiles_repr, measured_on, reported_value) VALUES
  ('Cc1cc(C)c(Oc2nc(N)nc(Nc3cc(F)cc(F)c3)n2)c(C)c1', 'Trypanosoma brucei brucei', 5.89),
  ('Cc1cc(F)cc(C)c1Nc1nc(N)nc(Nc2ccc(C#N)cc2)n1', 'Trypanosoma brucei brucei', 5.10),
  ('Nc1nc(Nc2ccc(F)cc2)nc(Nc2ccc(F)cc2)n1', 'Trypanosoma brucei brucei', 5.55),
  ('CNc1nc(Nc2ccc(F)cc2)nc(Oc2c(C)cc(C)cc2C)n1', 'Trypanosoma brucei brucei', 4.96),
  ('Cc1cc(C)c(Oc2ncnc(Nc3ccccc3)n2)c(C)c1', 'Trypanosoma brucei brucei', 4.49);

P. N#Cc1ccc(Nc2nc(N)nc(Nc3ccc(F)cc3)n2)cc1
Q. Cc1ccc(Oc2nc(N)nc(Nc3ccc(F)cc3)n2)cc1
R. Cc1cc(C)c(Oc2nc(N)nc(Nc3ccc(Cl)cc3)n2)c(C)c1
Data request: Order each entry by recorded pIC50, climbing from the minimum. Arrange the labels as the request states and list them.
Data returned: P, R, Q

a. Cc1cc(C)c(Oc2ncnc(Nc3ccc(F)cc3)n2)c(C)c1
b. Cc1cc(C)c(Oc2nc(N)nc(Nc3ccc(C(F)(F)F)cc3)n2)c(C)c1
Data request: // returns a or b , whichever has the lower pIC50 # respond with the chosen item's label
Data returned: a
(a: 4.51, b: 5.16)

* * *

Listed here are compounds together with their documented IC50.
System: Trypanosoma brucei brucei
Test: Antitrypanosomal activity against suramin-sensitive Trypanosoma brucei brucei Squib 427 after 72 hrs by resazurin dye-based fluorimetric analysis
Type: functional, organism-based
Details: Squib 427, 72 h

INSERT INTO assay_data (smiles_repr, reported_value) VALUES
  ('Cc1ccc(Nc2nc(N)nc(Nc3ccc(C#N)cc3)n2)cc1', '> 64 µM'),
  ('Cc1cc(C)c(Oc2nc(N)nc(Nc3c(F)cccc3F)n2)c(C)c1', '> 64 µM');

Data request: Query: IC50; subject: Nc1nc(Nc2ccc(F)cc2)nc(Sc2ccc(F)cc2)n1
Data returned: > 64 µM
